# Tgt: Gonadotropin-releasing hormone receptor (Homo sapiens, UniProt P30968)
# Sequence (P30968 whole entry): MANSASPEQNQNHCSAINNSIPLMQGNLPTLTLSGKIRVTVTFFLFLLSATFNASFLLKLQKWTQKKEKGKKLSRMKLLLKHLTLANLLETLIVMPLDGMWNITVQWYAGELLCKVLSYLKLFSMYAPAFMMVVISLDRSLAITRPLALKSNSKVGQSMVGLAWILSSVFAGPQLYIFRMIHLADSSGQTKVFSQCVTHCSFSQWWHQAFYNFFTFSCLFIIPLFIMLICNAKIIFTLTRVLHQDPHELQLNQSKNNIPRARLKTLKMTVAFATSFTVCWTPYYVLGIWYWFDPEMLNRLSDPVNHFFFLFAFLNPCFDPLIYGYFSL
# Method notes: Displacement of [125I]D-Trp6-LHRH from human GnRH receptor expressed in CHO-K1 cell membranes incubated for 1 hr by competitive binding assay
pIC50: −log10 of the molar value.
Readout name: pIC50

Solved entries (count: 3):
>  <Input smiles>
Cc1c(N2CCN(Cc3ccc(O)cc3)CC2)c(=O)n(C[C@H](N)c2ccccc2)c(=O)n1Cc1c(F)cccc1F

>  <pIC50>
7.45

$$$$
>  <Input smiles>
Cc1c(N2CCN(Cc3ccccc3C#N)CC2)c(=O)n(C[C@H](N)c2ccccc2)c(=O)n1Cc1c(F)cccc1F

>  <pIC50>
8.17

$$$$
>  <Input smiles>
Cc1c(N2CCN(Cc3cccc([N+](=O)[O-])c3)CC2)c(=O)n(C[C@H](N)c2ccccc2)c(=O)n1Cc1c(F)cccc1C(F)(F)F

>  <pIC50>
9.35

$$$$

1. Cc1c(N2CCN(Cc3cccc(F)c3)CC2)c(=O)n(C[C@H](N)c2ccccc2)c(=O)n1Cc1c(F)cccc1F
2. Cc1c(N2CCN(Cc3cccc([N+](=O)[O-])c3)CC2)c(=O)n(C[C@H](N)c2ccccc2OCC(=O)O)c(=O)n1Cc1c(F)cccc1C(F)(F)F
QUERY: Parameter metric = pIC50. Return the lower-valued option from 1 and 2 . Selection: enter the item's label.
RESULT: 1
(1: 8.42, 2: 9.64)
